- Species: Cavia porcellus
- measurement.notes: Antagonism of calcium-induced contractions of guinea pig ileal strips
- Assay type: functional
measured.property: log10(Kb) (log10 of the value in nM)

molecule: CC(C)N(CC#CCCCC1(C2(O)c3ccccc3Oc3ccccc32)SCCCS1)C(C)C
log10(Kb): 2.30
//
molecule: CN(CC#CCCC1(C2(O)c3ccccc3Sc3ccccc32)SCCCS1)CCCCc1ccccc1
log10(Kb): 3.53
//
molecule: CCN(CC)CC#CCCC1(C(C)(O)c2ccccc2)SCCCS1 (stereo not given)
log10(Kb): 3.40
//
molecule: CN(CC#CCCC1(C2(O)c3ccccc3Oc3ccccc32)SCCCS1)CCCCc1ccccc1
log10(Kb): 3.28
//
molecule: CCCN(CC#CCCCC1(C2(O)c3ccccc3Oc3ccccc32)SCCCS1)CCC
log10(Kb): 2.67
//
molecule: CCN(CC)CC#CCCC1(C2(O)c3ccccc3Sc3ccc(Cl)cc32)SCCCS1 (stereo not given)
log10(Kb): 2.52
//
molecule: OC1(C2(CCC#CCN3CCCCC3)SCCCS2)c2ccccc2Sc2ccc(Cl)cc21 (stereo not given)
log10(Kb): 3.78
//
molecule: CCN(CC)CC#CCCC1(C(O)(c2ccccc2)C2CCCCC2)SCCCS1 (stereo not given)
log10(Kb): 3.06
//
molecule: CN(CC#CCCC1(C(O)(c2ccccc2)c2ccccc2)SCCCS1)Cc1ccccc1
log10(Kb): 3.50
//
molecule: CN(C)CC#CCCC1(C2(O)c3ccccc3Oc3ccccc32)SCCCS1
log10(Kb): 3.06

====

- measurement.notes: The compound was tested for inhibition of calcium influx into neuronal (NG108-15) cells.
- Type: functional
- test.conditions: Mus musculus
pIC50: −log10 of the molar value.

compound: COc1ccc([C@@H]2Sc3ccccc3N(CCN(C)C)C(=O)[C@@H]2OC(C)=O)cc1 [DILTIAZEM]
pIC50: 4.83

====

- Organism: Cavia porcellus
- measurement.notes: Antagonism of calcium-induced contractions of guinea pig ileal strips
- Assay type: functional
Condition met means recorded Kb is 1 µM or above; Condition not met means it is below 1 µM.

smiles.text: CCN(CC)CC#CCCCC1(C2(O)c3ccccc3Oc3ccccc32)SCCCS1
answer.label: Condition not met
--
smiles.text: CN(CC#CCCC1SCCCS1)Cc1ccccc1
answer.label: Condition met
--
smiles.text: CN(CC#CCCC1(c2ccccc2)SCCCS1)CCc1ccccc1
answer.label: Condition met
--
smiles.text: CCN(CC)CC#CCCC1(C(c2ccccc2)c2ccccc2)SCCCS1
answer.label: Condition not met
--
smiles.text: CCN(C)CC#CCCC1(C2(O)c3ccccc3Oc3ccccc32)SCCCS1
answer.label: Condition met
--
smiles.text: CCN(CC)CC#CCCC1(C2(O)c3ccccc3Oc3ccccc32)SCCCS1
answer.label: Condition not met
--
smiles.text: CCN(CC)CC#CCCCCC1(C2(O)c3ccccc3Oc3ccccc32)SCCCS1
answer.label: Condition met
--
smiles.text: CCN(CC)CC#CCCC1(C2(O)c3ccccc3CCc3ccccc32)SCCCS1
answer.label: Condition met
--
smiles.text: CN(CC#CCCCC1SCCCS1)CCc1ccccc1
answer.label: Condition met
--
smiles.text: CN1CCN(CC#CCCC2(C3(O)c4ccccc4Oc4ccccc43)SCCCS2)CC1
answer.label: Condition not met

====

- Organism: Cavia porcellus
- measurement.notes: Antagonism of calcium-induced contractions of guinea pig ileal strips
- Format: functional
measured.property: log10 of Kb (log10 of the value in µM)

compound: OC1(C2(CCC#CCN3CCCCC3)SCCCS2)c2ccccc2Sc2ccccc21
log10 of Kb: 0.56
//
compound: CCN(CC#CCCC1(C2(O)c3ccccc3Oc3ccccc32)SCCCS1)C(C)C
log10 of Kb: -0.34
//
compound: CN(CC#CCCC1SCCCS1)Cc1ccc2ccccc2c1
log10 of Kb: 0.92
//
compound: CN(C)CC#CCCC1(C2(O)c3ccccc3Sc3ccccc32)SCCCS1
log10 of Kb: -0.17
//
compound: CN(CC#CCCCC1SCCCS1)Cc1ccccc1
log10 of Kb: 0.65
//
compound: CCN(CC)CC#CCCC(O)(c1ccccc1)C1SCCCS1 (configuration not stated)
log10 of Kb: 0.83
//
compound: CCN(C)CC#CCCC1(C2(O)c3ccccc3Sc3ccc(Cl)cc32)SCCCS1 (configuration not stated)
log10 of Kb: 0.40

====

Below, each entry is listed alongside its reported Kb.
- Species: Cavia porcellus
- measurement.notes: Antagonism of calcium-induced contractions of guinea pig ileal strips
- Format: functional

compound: CN(C)CC#CCCC1(C2(O)c3ccccc3Sc3ccc(Cl)cc32)SCCCS1 (stereo not given)
Kb / nM: 2330
//
compound: CCN(CC)CC#CCCC1(C2(O)CCOc3ccccc32)SCCCS1 (stereo not given)
Kb / nM: 1940
//
compound: CN(CC#CCCC1(C(O)(c2ccccc2)C2CCCCC2)SCCCS1)CCc1ccccc1 (stereo not given)
Kb / nM: 3750
//
compound: CN(CC#CCCC(O)(c1ccccc1)C1SCCCS1)CCc1ccccc1 (stereo not given)
Kb / nM: 2250
//
compound: CN(CC#CCCC1SCCCS1)CCc1cccc2ccccc12
Kb / nM: 1520
//
compound: CN(CC#CCCC1(C2(O)c3ccccc3Sc3ccccc32)SCCCS1)CCCc1ccccc1
Kb / nM: 4160
//
compound: CCN(CC)CC#CCCC1(C2(O)c3ccccc3C=Cc3ccccc32)SCCCS1
Kb / nM: 300
//
compound: CCCN(CC#CCCCC1(C2(O)c3ccccc3Sc3ccccc32)SCCCS1)CCC
Kb / nM: 770
//
compound: CCOC(=O)C1=C(C)NC(C)=C(C(=O)OC)C1c1cccc([N+](=O)[O-])c1 (stereo not given) [NITRENDIPINE]
Kb / nM: 2
//
compound: CCN(CC)CC#CCCC1(C2(O)c3ccccc3Sc3ccccc32)SCCCS1
Kb / nM: 130

====

Below, each entry is listed alongside its reported Kb.
- Organism: Cavia porcellus
- measurement.notes: Antagonism of calcium-induced contractions of guinea pig ileal strips
- Format: functional

molecule: CN(CC#CCCC1SCCCS1)CCc1ccccc1
readout.qualifier: =
Kb, nM: 2270
--
molecule: CN(CC#CCCC1SCCCS1)CCc1ccc2ccccc2c1
readout.qualifier: =
Kb, nM: 4730
--
molecule: CN(CC#CCCC1SCCCS1)CCCc1ccccc1
readout.qualifier: =
Kb, nM: 2980
--
molecule: CCN(CC)CC#CCCCCC1SCCCS1
readout.qualifier: >
Kb, nM: 5000
--
molecule: CN(CC#CCCC1SCCCS1)CCCCc1ccccc1
readout.qualifier: =
Kb, nM: 3430
--
molecule: CN(CC#CCCC1(C2(O)c3ccccc3Oc3ccccc32)SCCCS1)CCCc1ccccc1
readout.qualifier: =
Kb, nM: 3090
--
molecule: CCN(CC)CC#CCCC1(c2ccccc2)SCCCS1
readout.qualifier: =
Kb, nM: 900
--
molecule: COc1ccc(CCN(C)CC#CCCC(O[Si](C)(C)C)(c2ccccc2)C2SCCCS2)cc1OC (stereo not drawn)
readout.qualifier: =
Kb, nM: 570
--
molecule: COc1ccc(CCN(C)CC#CCC2(c3ccccc3)SCCCS2)cc1OC
readout.qualifier: =
Kb, nM: 1170
--
molecule: OCCN1CCN(CC#CCCC2SCCCS2)CC1
readout.qualifier: >
Kb, nM: 10000
--
molecule: COc1ccc(CCN(C)CCCC(C#N)(c2ccc(OC)c(OC)c2)C(C)C)cc1OC (stereo not drawn)
readout.qualifier: =
Kb, nM: 20
--
molecule: COc1ccc(N(C)CC#CCCC2SCCCS2)cc1OC
readout.qualifier: =
Kb, nM: 2220
--
molecule: OC1(C2(CCC#CCN3CCCCC3)SCCCS2)c2ccccc2Oc2ccccc21
readout.qualifier: =
Kb, nM: 390
--
molecule: CCN(CC)CC#CCC1(c2ccccc2)SCCCS1
readout.qualifier: =
Kb, nM: 4270
--
molecule: CN(CC#CCCC1(C(O)(c2ccccc2)c2ccccc2)SCCCS1)CCc1ccccc1
readout.qualifier: =
Kb, nM: 2650
--
molecule: CCN(C)CC#CCCC1(C2(O)c3ccccc3Sc3ccccc32)SCCCS1
readout.qualifier: =
Kb, nM: 570
--
molecule: COc1ccc(CCN(C)CC#CCCC(O)(c2ccccc2)C2SCCCS2)cc1OC (stereo not drawn)
readout.qualifier: =
Kb, nM: 1230
--
molecule: CN(CC#CCCC1(C2(O)c3ccccc3Sc3ccc(Cl)cc32)SCCCS1)CCCc1ccccc1 (stereo not drawn)
readout.qualifier: >
Kb, nM: 7000
--
molecule: CCN(CC)CC#CCCC1(Cc2ccccc2)SCCCS1
readout.qualifier: =
Kb, nM: 1960
--
molecule: CCN(CC)CC#CCCC1(C2(O)CCCc3ccccc32)SCCCS1 (stereo not drawn)
readout.qualifier: =
Kb, nM: 830
--
molecule: CCCN(CC#CCCCC1SCCCS1)CCC
readout.qualifier: =
Kb, nM: 7500
--
molecule: CCN(CC)CC#CCCC1(C(O)(c2ccccc2)C2CCCC2)SCCCS1 (stereo not drawn)
readout.qualifier: =
Kb, nM: 980
--
molecule: CN(CC#CCCC1(C(O)(c2ccccc2)c2ccccc2)SCCCS1)CCCc1ccccc1
readout.qualifier: =
Kb, nM: 1630
